# pIC50 D2 listing for each entry below
# Assay System: Human Dopamine D2L receptor (Homo sapiens, UniProt P14416)
# Construct: expressed in transfected cells; host or cells: CHO cells
# Sequence (P14416 whole entry): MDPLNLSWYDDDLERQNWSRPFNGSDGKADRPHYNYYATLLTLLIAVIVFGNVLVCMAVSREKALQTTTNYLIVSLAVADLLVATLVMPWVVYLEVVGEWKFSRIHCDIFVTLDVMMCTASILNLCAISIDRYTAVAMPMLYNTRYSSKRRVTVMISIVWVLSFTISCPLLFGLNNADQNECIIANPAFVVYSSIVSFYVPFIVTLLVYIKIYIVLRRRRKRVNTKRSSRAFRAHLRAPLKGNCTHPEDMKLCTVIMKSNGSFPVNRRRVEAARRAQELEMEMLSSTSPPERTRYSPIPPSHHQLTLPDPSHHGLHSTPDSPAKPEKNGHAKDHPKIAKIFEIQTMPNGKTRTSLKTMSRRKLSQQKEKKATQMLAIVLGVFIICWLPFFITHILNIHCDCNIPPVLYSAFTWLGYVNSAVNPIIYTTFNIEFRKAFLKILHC
# Protocol Details: Binding experiment for dopamine D2 receptor ([3H]Spiperone)
# Test Context: D2L-transfected CHO cell membranes

- Compound: "COc1cc2c(cc1OC)C1=NOC(CN3CCC(c4c[nH]c5ccc(F)cc45)CC3)C1CO2 (single isomer, unassigned) [Compound 15]"
  pIC50 D2: 6.1
- Compound: "Fc1ccc2c(C3CCN(CC4ON=C5c6ccc(N7CCOCC7)cc6OCC54)CC3)c[nH]c2c1 (racemic)"
  pIC50 D2: 7.5
- Compound: "COc1cc2c(cc1OC)C1=NOC(CN3CC=C(c4c[nH]c5cccc(F)c45)CC3)C1CO2 (single isomer, unassigned) [Compound 16]"
  pIC50 D2: 6.0

pIC50 D2 measured on COc1cc2c(cc1OC)C1=NOC(CN3CC=C(c4c[nH]c5cccc(F)c45)CC3)C1CO2 (racemic) [Compound 9] = 6.1

pIC50 D2 measured on Fc1ccc2[nH]cc(C3=CCN(CC4ON=C5c6ccc(NCCN7CCCC7)cc6OCC54)CC3)c2c1 (racemic) = 6.8

Cited source: patent US7635696B2
